These entries and their values trace back to PubChem BioAssay AID1346428.

- assay.system: Probable G-protein coupled receptor 32 (Homo sapiens) (UniProt O75388)
- Sequence (O75388 whole entry, looked up): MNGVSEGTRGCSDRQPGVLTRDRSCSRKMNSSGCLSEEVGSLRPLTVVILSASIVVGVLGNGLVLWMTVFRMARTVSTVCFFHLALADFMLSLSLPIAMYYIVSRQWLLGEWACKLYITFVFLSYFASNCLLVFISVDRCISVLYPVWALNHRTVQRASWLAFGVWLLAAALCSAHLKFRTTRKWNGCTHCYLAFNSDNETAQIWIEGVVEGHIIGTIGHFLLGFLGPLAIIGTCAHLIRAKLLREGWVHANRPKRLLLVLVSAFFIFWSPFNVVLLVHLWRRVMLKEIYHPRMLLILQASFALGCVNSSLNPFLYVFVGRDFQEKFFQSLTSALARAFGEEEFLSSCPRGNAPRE
- test.details: qHTS for Agonists of Human Resolvin D1 Receptor DRV1; note: 0% is about no effect
- conditions.used: CHO-K1 GPR32 beta-arrestin PathHunter luminescence, 90 min; at 76.9 µM; active compounds read high; zero percent set by DMSO-only wells
- Text: Endogenous resolution of inflammation is known to be transduced through various GPCRs and their natural mediators of lipid nature. Resolvin D1 (RvD1) is one of the active players in resolution of acute inflammation through regulation of anti-inflammatory pathways; it is known to enhance phagocytosis of human macrophages, limits neutrophils infiltration, etc. […]
Screen size: about 48,000 compounds; about 1,200 (2.5%) were called active. Another 2% or so got no clear call; they are omitted. The entries come from a sample that favours actives as a whole.
measured.property: activation (%)
A number alone suffices; assume %.

Task: Form field: activation recorded for Cc1cc(C)cc(OCC(=O)Nc2nc(-c3ccc(F)cc3)ns2)c1 with Probable G-protein coupled receptor 32 (Homo sapiens) (UniProt O75388) (enter value)
Output: 4.54

Task: Same read-out for O=C(CSc1ncc(CO)n1Cc1ccc(Cl)cc1)NCc1ccc(F)cc1 ?
Output: 39.5

Task: Same read-out for OCc1cnc(SCc2ccc(F)cc2)n1Cc1ccc(F)cc1 ?
Output: 109

Task: Same read-out for CCC(=O)N1CCc2cc(Br)cc(S(=O)(=O)CCC(=O)N3CCN(c4ccc(F)cc4)CC3)c21 ?
Output: 1.23

Task: Same read-out for Cc1cccc(Nc2cc(C)nc(-n3nc(C)cc3C)n2)c1 ?
Output: -20.8

Task: Same read-out for O=C(CSc1ncc(CO)n1Cc1ccc(F)cc1)NCc1ccco1 ?
Output: 7.63

###

- assay.system: Probable G-protein coupled receptor 32 (Homo sapiens)
- test.details: qHTS for Agonists of Human Resolvin D1 Receptor DRV1; note: 0% is about no effect
- conditions.used: CHO-K1 GPR32 beta-arrestin PathHunter luminescence, 90 min; at 76.9 µM; active compounds read high; zero percent set by DMSO-only wells
- From the text: Endogenous resolution of inflammation is known to be transduced through various GPCRs and their natural mediators of lipid nature. Resolvin D1 (RvD1) is one of the active players in resolution of acute inflammation through regulation of anti-inflammatory pathways; it is known to enhance phagocytosis of human macrophages, limits neutrophils infiltration, etc. […]
The whole screen tested about 48,000 compounds, of which about 1,200 (2.5%) were called active. Another 2% or so got no clear call; they are omitted. Shown is part of a subset that was picked to be rich in actives.
measured.property: activation

O=C(NC1CC(=O)N(c2ccc(F)cc2)C1)C1CCCCC1 (stereo not given) = -2.56% (inactive)
COc1ccccc1N1CCN(CCCNC(=O)c2cnn(-c3ccccc3Cl)c2C2CCN(C(=O)OC(C)(C)C)CC2)CC1 = -18.9% (inactive)
COc1ccc(N2C(=O)NC(NS(=O)(=O)c3ccc(Cl)cc3)(C(F)(F)F)C2=O)cc1 (stereo not given) = -2.22% (inactive)
CCn1cc(C(=O)NCc2ccccc2)c(=O)c2cc(S(=O)(=O)N3CCCCC3)ccc21 = 0.542% (inactive)

Now look at this entry.
Task: Data request, read-out activation, for Cc1ccc(NC(=O)CSc2nc3c([nH]c4ccccc43)c(=O)n2-c2ccccc2)cc1Cl
Output: -26.8% (inactive)
